Cited source for all entries: the supplement of paper PMC12042874

assayComment: amyloid nucleation score (Sup35N fusion, yeast selection) (log enrichment); library NNK3; higher = more nucleation; inactive = no reads after selection;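 further: zero at mode of non-aggregating sequences after 7 days selection at 30°C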
property: amyloid nucleation score

substance: SDVKSS
testValue: inactive

substance: NFSIYYLDLISR
testValue: 1.95

substance: LMKMKRFLQLWTIGDGASKS
testValue: 1.81

substance: NCCPIIPVDYNYNRLPIIVG
testValue: inactive

substance: TMSRRAARMQCAILVPSRLL
testValue: inactive

substance: GYFTRFSVFNNMEPLSCCMC
testValue: 1.38

substance: NAQDPIGSGYVQ
testValue: inactive

substance: VNNNYEVCNDRDSCPLINFC
testValue: inactive

substance: TCIGPGRFFFMMFYV
testValue: inactive

---

assayComment: amyloid nucleation score (Sup35N fusion, yeast selection) (log enrichment); library NNK3; higher = more nucleation; inactive = no reads after selection

residues: SSSLVRCHG
amyloid nucleation score: inactive
--
residues: IMVRGVRDS
amyloid nucleation score: inactive
--
residues: TLTRVRTRCTKWRFICNCPM
amyloid nucleation score: 0.254
--
residues: PDKVWMYCQHICAVKMSLIC
amyloid nucleation score: inactive
--
residues: PMKFQVFGVSQGVR
amyloid nucleation score: inactive
--
residues: FLLVSLAA
amyloid nucleation score: inactive
--
residues: LSSFRPSYEYYLRDISAMSW
amyloid nucleation score: inactive
--
residues: KIIYKGLYEHLIVMLNIINL
amyloid nucleation score: inactive
--
residues: YNVRSFLTKVEWTYYFS
amyloid nucleation score: 0.391
--
residues: MTSQSMKVISWCDRHRQMNS
amyloid nucleation score: 1.03
--
residues: LMIEGLSDIHVLMAVSPERG
amyloid nucleation score: inactive
--
residues: PETWDTRCGV
amyloid nucleation score: 0.03
--
residues: HCNFMRFCLRAFSSGMHWLF
amyloid nucleation score: inactive
--
residues: HQSISGWLVRGLTAGSGAVC
amyloid nucleation score: -0.496
--
residues: DSQVSTTGVMEDRYLPILCF
amyloid nucleation score: inactive
--
residues: MRRTSCTVYTGKIRRIMYVV
amyloid nucleation score: inactive
--
residues: PFFCTMITYNGLVYDIFWRG
amyloid nucleation score: inactive
--
residues: RWWKKTIQIFKCFVKHLEWG
amyloid nucleation score: inactive
--
residues: HMSSLITVS
amyloid nucleation score: inactive
--
residues: NSSNVFVLIVCMYWKFSYSC
amyloid nucleation score: inactive
--
residues: RVSNGPIIYRRMHAAGDNLT
amyloid nucleation score: inactive
--
residues: LFTWKCDLGSRRAKGSGLGS
amyloid nucleation score: 1.42
--
residues: QCSWLCIWMGVYLTLILSCA
amyloid nucleation score: 0.805
--
residues: LLLWSAIIYK
amyloid nucleation score: inactive
--
residues: FLVRRGCP
amyloid nucleation score: inactive
--
residues: MWFAKAGTCNGSWLDMLSGW
amyloid nucleation score: inactive
--
residues: IVITHANTWMLLLVFPITAN
amyloid nucleation score: inactive
--
residues: KTKQIYDGPLGHSYADKCNV
amyloid nucleation score: inactive
--
residues: ATCLLIGFGPWMSPAG
amyloid nucleation score: inactive
--
residues: DGVLNRSNDHPVQTPWPWFW
amyloid nucleation score: inactive
--
residues: RSMIWRKCF
amyloid nucleation score: inactive
--
residues: VTHCSVFHLGNTWLVQLWWY
amyloid nucleation score: -0.513

---

assayComment: amyloid nucleation score (Sup35N fusion, yeast selection) (log enrichment); library NNK1; higher = more nucleation; inactive = no reads after selection
property: amyloid nucleation score

residues: QFYVSVFEIYSLLTRKCACR
property: amyloid nucleation score
testValue: inactive
--
residues: KSTPEYRSKDSMCELHKDMC
property: amyloid nucleation score
testValue: inactive
--
residues: SKWYSDQT
property: amyloid nucleation score
testValue: inactive

---

assayComment: amyloid nucleation score (Sup35N fusion, yeast selection) (log enrichment); library NNK1; higher = more nucleation; inactive = no reads after selection

residues: FRYIYMMDMSSYQYVKRGSS
amyloid nucleation score: inactive

residues: DTSSACLCNRDRSDLLVCRV
amyloid nucleation score: inactive

residues: KGELLGDWGAIYHWCF
amyloid nucleation score: inactive

---

assayComment: amyloid nucleation score (Sup35N fusion, yeast selection) (log enrichment); library NNK2; higher = more nucleation; inactive = no reads after selection

substance: RGWKSLWRLNFYVWVWHLKD
amyloid nucleation score: 2.67
--
substance: WCHVSLMYRGYLKSGARDGN
amyloid nucleation score: 0.199
--
substance: DVGSCVRGYTGQSKNLWTYG
amyloid nucleation score: 0.028
--
substance: DSSMFYVIGLL
amyloid nucleation score: -0.626
--
substance: KKRLCDTSTIFQINNLHRMM
amyloid nucleation score: -1.32
--
substance: KIRRPFEMRGSVRDRGCIVR
amyloid nucleation score: 0.938
--
substance: LASFFCFGIINTAC
amyloid nucleation score: -0.019
--
substance: NIQWLLQVDEDFKF
amyloid nucleation score: 1.58
--
substance: DFGREVVVIPLSEV
amyloid nucleation score: 0.323
--
substance: ITDVFSMWIF
amyloid nucleation score: -0.73
--
substance: PFPSPSDSGTVAA
amyloid nucleation score: 0.737
--
substance: MRVRLGSATR
amyloid nucleation score: 0.47
--
substance: VIYVPLGKNLKIFSKHSFFG
amyloid nucleation score: -0.906
--
substance: NLLLFYPAISVSCVNYTMRV
amyloid nucleation score: 7.13
--
substance: HVVGVNLYRTLGRVFHLWDS
amyloid nucleation score: -0.084
--
substance: FFDIVIAERLTVLHVSVVSK
amyloid nucleation score: 4.59
--
substance: VVSWKCIEYYVVE
amyloid nucleation score: -0.871
--
substance: NMDSGLVMVVLVCDDYMTTT
amyloid nucleation score: 0.119
--
substance: WLIGRNAKSWAWVFLKRSTG
amyloid nucleation score: 0.392

---

assayComment: amyloid nucleation score (Sup35N fusion, yeast selection) (log enrichment); library NNK1; higher = more nucleation; inactive = no reads after selection
property: amyloid nucleation score

substance: SNGHNAILVA
testValue: inactive

substance: NVIFPTYRFVRFPSYMTLGW
testValue: inactive

substance: MTTHVRWFNGLMSP
testValue: inactive

substance: LKCLFLIAIFYIINCCSNLS
testValue: inactive

substance: LNRVFEDHWVLTLAVLHTSR
testValue: inactive

substance: STCNYLDSGGRDRCSFFNCD
testValue: 0.078

substance: FIAIDLS
testValue: 1.31

substance: YEDLSNDYNSNRWIVYALSK
testValue: -0.189

substance: GGPQLKVCSFGLFWWFIEVV
testValue: inactive

substance: LSCWLYNPGYCVSVEFC
testValue: 6.91

substance: TVRRVGISWNWYIKTLYGSD
testValue: -1.12

substance: CHIWPDVLNVCAILGDLRKR
testValue: 1.18

substance: EALNPVVLPSTN
testValue: 1.55

substance: RCLEGLSIMLNDFLPPCGP
testValue: -0.224

substance: SVDRMAYRMCMRNVRLNLCT
testValue: 0.962

substance: CVNLFSLLFWTLAIRCLNFR
testValue: -0.025

substance: YTVMVVI
testValue: 1.44

substance: KIVRSRWFIICACVKLRTRL
testValue: 0.427

substance: YVLFFSPCT
testValue: inactive

substance: LYRDSLKLF
testValue: -0.725

substance: FLDLSGMPGSVWFDIGVSCF
testValue: -0.716

substance: YDRVLNLSDSWCTNAAPWWG
testValue: 0.394

substance: TVLGTSQGSCGWSNPSRNAR
testValue: -0.455

substance: STNWFNYSNGNTVWDIGDYL
testValue: 0.4

---

assayComment: amyloid nucleation score (Sup35N fusion, yeast selection) (log enrichment); library NNK1; higher = more nucleation; inactive = no reads after selection
property: amyloid nucleation score

substance: VSWDSMYMAMPWVIVHVL
testValue: inactive

substance: DSFVRT
testValue: inactive

substance: TFPGDGRFPKVSKVYDPVLE
testValue: inactive

---

assayComment: amyloid nucleation score (Sup35N fusion, yeast selection) (log enrichment); library NNK1; higher = more nucleation; inactive = no reads after selection

residues: PFINVLSICLLIWALVPVDS
amyloid nucleation score: inactive
--
residues: TFSDFIQKGWRFIFKYPFRC
amyloid nucleation score: 0.686
--
residues: CCQYSWSNVMSVRKLSAWLH
amyloid nucleation score: 0.04
--
residues: VTYKEQNGLLLFAPDSVQRD
amyloid nucleation score: inactive
--
residues: AIAIPDRCLFYATRFSCDSR
amyloid nucleation score: inactive
--
residues: NFFVSRLISQPHLGTYYAS
amyloid nucleation score: inactive
--
residues: ATRVPPFMEVLSPYH
amyloid nucleation score: inactive
--
residues: NELWCKADVMS
amyloid nucleation score: inactive

---

assayComment: amyloid nucleation score (Sup35N fusion, yeast selection) (log enrichment); library NNK1; higher = more nucleation; inactive = no reads after selection

residues: ALLIPINTLGDN
amyloid nucleation score: 0.605

residues: SAAPRFCSYSSFFALSNLSI
amyloid nucleation score: 0.615

residues: YSMHKLSVFRRTYSVTISRT
amyloid nucleation score: 0.591
